Test system: WPMY1-TP53BP1-CLTA
Experiment: phenotypically active (imaging signature differs from DMSO and reproducible) at any of 0.3-9 uM (binary (1 = active, 0 = inactive)); higher = active
Settings: treatment time: 24 h
Structures can show the parent of a compound that is named as a salt.
Attribute Measured: phenotypically active
Keep it simple and answer with nothing but the number.

Molecule: O=C(O)[C@]1(O)C[C@H](O)[C@@H](O)[C@@H](O)C1
Observed Measurement: 0
//
Molecule: Cn1cc(C2=C(c3ccc(Cl)cc3Cl)C(=O)NC2=O)c2ccccc21
Observed Measurement: 1
//
Molecule: CN(C)CCc1c[nH]c2ccc(C[C@H]3COC(=O)N3)cc12
Observed Measurement: 0
//
Molecule: Cc1cc(Nc2nc(N[C@@H](C)c3ncc(F)cn3)ncc2Cl)n[nH]1
Observed Measurement: 1
//
Molecule: COc1cc2ncnc(Nc3cccc(Br)c3)c2cc1OC
Observed Measurement: 1

-- ask So what's the measured phenotypically active for this one? OC(CCN1CCCCC1)(c1ccccc1)C1CCCCC1 (centres undefined)
-- reply 0

-- ask So what's the measured phenotypically active for this one? C#CCN[C@@H]1CCc2ccccc21
-- reply 1

-- ask So what's the measured phenotypically active for this one? O=C1CN2Cc3c(ccc(Cl)c3Cl)N=C2N1 [Anagrelide hydrochloride]
-- reply 0

-- ask So what's the measured phenotypically active for this one? CN1C(=O)/C(=C2/Nc3ccccc3/C2=N/O)c2ccc(Br)cc21
-- reply 0

-- ask So what's the measured phenotypically active for this one? CC(=O)C1=C(O)[C@]2(C)C(=CC1=O)Oc1c(C(C)=O)c(O)c(C)c(O)c12 [(+)-Usnic acid]
-- reply 0

-- ask So what's the measured phenotypically active for this one? Nc1ncnc(Nc2ccc(OCc3ccccc3)c(Cl)c2)c1/C=N/OCCN1CCOCC1
-- reply 0

-- ask So what's the measured phenotypically active for this one? OCCN1C[C@H](O)[C@@H](O)[C@H](O)[C@H]1CO
-- reply 0

-- ask So what's the measured phenotypically active for this one? O=C(CCc1ccc(O)cc1)c1c(O)cc(O)cc1O[C@@H]1O[C@H](CO)[C@@H](O)[C@H](O)[C@H]1O
-- reply 0

-- ask So what's the measured phenotypically active for this one? CN(C)CC(=O)N1CCC[C@@H](n2nc(-c3ccc(Oc4ccccc4)cc3)c3c(N)ncnc32)C1
-- reply 1

-- ask So what's the measured phenotypically active for this one? CCC(C)(C)C(=O)O[C@H]1C[C@@H](C)C=C2C=C[C@H](C)[C@H](CC[C@@H]3C[C@@H](O)CC(=O)O3)[C@H]21
-- reply 1

====

Test system: WPMY1-CANX-COX4
Assay: phenotypically active (imaging signature differs from DMSO and reproducible) at any of 0.3-9 uM (binary (1 = active, 0 = inactive)); higher = active
Details: treatment time: 24 h
Structures can show the parent of a compound that is named as a salt.
Outcome field: choose from yes (1) for active, no (0) for inactive

Solved cases (5 shown):
Molecule: Clc1ccc(N/N=C(\c2ccccc2)c2ccccn2)nc1
Class Name: yes (1)

Molecule: C[C@](N)(Cc1ccc(O)c(O)c1)C(=O)O [methyldopa]
Class Name: no (0)

Molecule: COc1c2c(cc3oc(CO)cc(=O)c13)O[C@@H](C(C)(C)O)C2 [Cimifugin]
Class Name: no (0)

Molecule: CCOC(=O)[C@H](CCc1ccccc1)N[C@@H](C)C(=O)N1CCC[C@H]1C(=O)O [enalapril]
Class Name: no (0)

Molecule: Nn1nnc2ccccc21
Class Name: no (0)

-- ask // param item: Nc1ncnc2c1ncn2[C@H]1O[C@@H](C(=O)N2CCN(CC(=O)Nc3cccc4c3CNC4=O)CC2)[C@H](O)[C@@H]1O ; yields the recorded call
-- reply no (0)

-- ask // param item: CCCCC1C(=O)N(c2ccccc2)N(c2ccc(O)cc2)C1=O (centres undefined) [oxyphenbutazone] ; yields the recorded call
-- reply no (0)

-- ask // param item: Cc1nc(NC(=O)N2CCC[C@H]2C(N)=O)sc1-c1ccnc(C(C)(C)C(F)(F)F)c1 [alpelisib] ; yields the recorded call
-- reply yes (1)

-- ask // param item: CN1CCN(C(=O)CN[C@H]2C[C@@H]2c2ccc(OCc3ccccc3)cc2)CC1 [RN 1 dihydrochloride] ; yields the recorded call
-- reply yes (1)

-- ask // param item: Nc1nccc(-c2ccc3noc(-c4ccc(Cl)cc4)c3c2)n1 [PIM-1 Inhibitor 2] ; yields the recorded call
-- reply yes (1)
